Test: Human pregnane X receptor (PXR) small molecule agonists, qHTS cell viability counter screen (AID 1346977); note: nearly all actives have a fitted effect of over 50% in size
Details: PXR-Luc HepG2 viability, CellTiter-Fluor, 24 h; series mostly up to 92.4 µM
Records with an inconclusive call do not appear. Activity calls are given as the source filed them. Calls come from the whole dose curve; as a rule, active = well fitted cell-killing curve with a large enough effect in the repeat runs; inconclusive = weak or mixed curves, or effect the other way; inactive = flat fitted curve, though single readings scatter.
Classes used: y = active, n = inactive

INSERT INTO assay_data (molecule, classification) VALUES
  ('O=C1Nc2cc(Cl)ccc2Oc2ccccc21', 'n'),
  ('C=C(C)C(=O)OCCN(C)C', 'n'),
  ('Cc1cc(NC(=O)C(=O)O)cc(C)c1Oc1ccc(O)c2c1CCC2', 'n'),
  ('CCCCCC(CO)CCC (stereo unspecified)', 'n'),
  ('CC(=O)SCc1ccco1', 'n'),
  ('O=C(NS(=O)(=O)/C=C/c1cccs1)c1ccc(F)cc1Br', 'n'),
  ('O=S1(=O)N=C(O)c2ccccc21', 'n'),
  ('CN(c1nccc(=O)[nH]1)C1CCN(c2nc3ccccc3n2Cc2ccc(F)cc2)CC1', 'n'),
  ('CCOC(=O)CC(C)C', 'n'),
  ('CCN(CC)CCOC(=O)C1(c2ccccc2)CCCC1', 'n'),
  ('S=C(S)NCCNC(=S)S', 'n'),
  ('C#CCOC(=O)[C@@H](C)Oc1ccc(Oc2ncc(Cl)cc2F)cc1', 'n'),
  ('Cn1sccc1=O', 'n'),
  ('CC[C@H](C)[C@H](N)C(=O)O', 'n'),
  ('Oc1ccc(Sc2ccc(O)cc2)cc1', 'n'),
  ('CCCCOC(O)CC (stereo unspecified)', 'n'),
  ('CN(C)CCCOc1nn(Cc2ccccc2)c2ccccc12', 'y'),
  ('N#CCCNCCC#N', 'n'),
  ('Cn1c(NCCN(CCO)CCCc2ccc([N+](=O)[O-])cc2)cc(=O)n(C)c1=O', 'n'),
  ('Cc1ccc(C(C)c2ccc(C)c(C)c2)cc1C', 'n'),
  ('CCCc1ccccc1', 'n');

* * *

Assay: qHTS assay to identify small molecule antagonists of the estrogen receptor beta (ER-beta) signaling pathway - cell viability counter screen (AID 1259382);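 note: HEK293T cells carrying ER-beta-UAS-bla reporter stimulated with estradiol; % is set by controls: 0 for no effect and ±100 for the full control effect; nearly all actives have a fitted effect of over 55% in size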
Conditions: ER-beta-UAS-bla HEK293T viability, CellTiter-Glo luminescence, 16 h; series mostly up to 92.4 µM
Results filed as inconclusive are left out. Calls of active or inactive are those of the source. Calls come from the whole dose curve; as a rule, active = well fitted cell-killing curve with a large enough effect in the repeat runs; inconclusive = weak or mixed curves; inactive = flat fitted curve, though single readings scatter.
measure.name: activity change, negative = cytotoxicity

INSERT INTO assay_data (smi, measure_name, result) VALUES
  ('COC(=O)CSc1cc(N=c2sc(=O)n3n2CCCC3)c(F)cc1Cl', 'activity change, negative = cytotoxicity', 'inactive'),
  ('COc1cc(C(C)(C)C)c(O)c(C(C)(C)C)c1', 'activity change, negative = cytotoxicity', 'inactive'),
  ('CCCC(=O)OCC', 'activity change, negative = cytotoxicity', 'inactive'),
  ('O=C1Nc2cc(Cl)ccc2Oc2ccccc21', 'activity change, negative = cytotoxicity', 'inactive'),
  ('NC[C@H]1O[C@H](O[C@H]2[C@H](O)[C@@H](O[C@H]3O[C@H](CO)[C@@H](O)[C@H](N)[C@H]3O)[C@H](N)C[C@@H]2N)[C@H](O)[C@@H](O)[C@@H]1O', 'activity change, negative = cytotoxicity', '0.386% [at 8.39 µM] (inactive)');

* * *

Assay: qHTS assay to identify small molecule antagonists of the thyroid receptor (TR) signaling pathway (AID 743065); note: nearly all actives have a fitted effect of over 55% in size; note: potency is the fitted concentration of half-maximal effect
Details: GH3.TRE-Luc, T3-stimulated luciferase inhibition, 23.5 h; series mostly up to 70.3 µM
Inconclusive results are not listed. The source made the active and inactive calls. Calls follow the shape of the dose curve; as a rule, active = well fitted inhibition curve with a large enough effect in the repeat runs; inconclusive = weak or mixed curves; inactive = no such curve, though single readings can be large or run the other way.
measure.name: Potency

INSERT INTO assay_data (compound, result) VALUES
  ('CN1CCC[C@@H]1c1cccnc1', 'inactive'),
  ('C=C(C)C(=O)OCCN(C)C', 'inactive'),
  ('CCC(C)N(C)C(=O)c1cc2ccccc2c(-c2ccccc2Cl)n1 (stereo not given)', '35.2 µM (active)'),
  ('Cc1ccc(C)o1', 'inactive'),
  ('CC(C)c1cccc(C(C)C)c1NC(=O)NS(=O)(=O)c1cc(C(C)(C)O)co1', 'inactive');

* * *

Assay: qHTS assay to identify small molecule agonists of the endoplasmic reticulum stress response signaling pathway - cell viability counter screen (AID 1159517);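 note: HeLa cells carrying an ER stress response element beta-lactamase reporter; % is set by controls: 0 for no effect and ±100 for the full control effect; nearly all actives have a fitted effect of over 50% in size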
Conditions: ESRE-bla HeLa viability, CellTiter-Glo luminescence, 5 h; series mostly up to 61 µM
Inconclusive results are not listed. The source made the active and inactive calls. The call rests on the fitted dose curve.
measure.name: activity change, negative = cytotoxicity

INSERT INTO results (compound, measure_name, result) VALUES
  ('Cc1cccc(OCCOc2cccc(C)c2)c1', 'activity change, negative = cytotoxicity', 'inactive'),
  ('CCCCCCCCN(C)C', 'activity change, negative = cytotoxicity', 'inactive'),
  ('COC(Cc1ccccc1)OC', 'activity change, negative = cytotoxicity', 'inactive'),
  ('c1ccc(-c2nc[nH]c2-c2ccccc2)cc1', 'activity change, negative = cytotoxicity', 'inactive'),
  ('O=S1(=O)N=C(O)c2ccccc21', 'activity change, negative = cytotoxicity', 'inactive'),
  ('CC[C@]12CCCN3CCc4c(n(c5ccccc45)C(=O)C1)[C@@H]32', 'activity change, negative = cytotoxicity', 'inactive'),
  ('NC(=S)N/N=C/c1cccnc1', 'activity change, negative = cytotoxicity', 'inactive'),
  ('CC(=O)NCCCS(=O)(=O)O', 'activity change, negative = cytotoxicity', 'inactive'),
  ('CC(=O)N(O)CCCCCNC(=O)CCC(=O)N(O)CCCCCNC(=O)CCC(=O)N(O)CCCCCN', 'activity change, negative = cytotoxicity', 'inactive'),
  ('Cc1cc(CC(=O)O)c(C)n1-c1ccc(Cl)cc1', 'activity change, negative = cytotoxicity', 'inactive'),
  ('OCC1CC2CC1C1CCC(CO)C21 (stereo not drawn)', 'activity change, negative = cytotoxicity', 'inactive'),
  ('Cc1ccc(C)o1', 'activity change, negative = cytotoxicity', 'inactive'),
  ('CN(C)CC/C=C1\c2ccccc2COc2ccccc21', 'activity change, negative = cytotoxicity', 'inactive'),
  ('CN(C)C/C=C(/c1ccc(Br)cc1)c1cccnc1', 'activity change, negative = cytotoxicity', 'inactive'),
  ('CCCCCCCCCO', 'activity change, negative = cytotoxicity', 'inactive'),
  ('CCN1CCC[C@H]1CNC(=O)c1c(OC)ccc(Br)c1OC', 'activity change, negative = cytotoxicity', 'inactive'),
  ('O=c1[nH]cnc2ccccc12', 'activity change, negative = cytotoxicity', 'inactive'),
  ('CCOC(=O)[C@H](CCc1ccccc1)N[C@H]1CCc2ccccc2N(CC(=O)O)C1=O', 'activity change, negative = cytotoxicity', 'inactive'),
  ('NC[C@H]1O[C@H](O[C@H]2[C@H](O)[C@@H](O[C@H]3O[C@H](CO)[C@@H](O)[C@H](N)[C@H]3O)[C@H](N)C[C@@H]2N)[C@H](O)[C@@H](O)[C@@H]1O', 'activity change, negative = cytotoxicity', '-9.96% [at 6.95 µM] (inactive)'),
  ('C=Cc1c(C)c2cc3[nH]c(cc4nc(cc5nc(cc1[nH]2)C(C)=C5CCC(=O)O)C(CCC(=O)O)=C4C)c(C)c3C=C', 'activity change, negative = cytotoxicity', 'inactive'),
  ('CCCOc1ccc2nc(NC(=O)OC)[nH]c2c1', 'activity change, negative = cytotoxicity', 'inactive'),
  ('CCCC(=O)OCC', 'activity change, negative = cytotoxicity', 'inactive'),
  ('CC(=O)/C(C)=C/C1C(C)=CCCC1(C)C (stereo not drawn)', 'activity change, negative = cytotoxicity', 'inactive'),
  ('C=C(C)C(=O)OC(C)C', 'activity change, negative = cytotoxicity', 'inactive'),
  ('CN1CCC[C@@H]1c1cccnc1', 'activity change, negative = cytotoxicity', 'inactive'),
  ('CN1CCN(C2=Nc3cc(Cl)ccc3Nc3ccccc32)CC1', 'activity change, negative = cytotoxicity', 'inactive'),
  ('c1ccc(OCc2ccc(CCCN3CCOCC3)cc2)cc1', 'activity change, negative = cytotoxicity', 'inactive'),
  ('CC[C@H](C)[C@@H](C(=O)O)n1sc2ccccc2c1=O', 'activity change, negative = cytotoxicity', 'inactive'),
  ('O=C(O)c1cn(C2CC2)c2cc(Cl)c(F)cc2c1=O', 'activity change, negative = cytotoxicity', 'inactive'),
  ('CC/C(=C\C(=N/O)C(N)=O)C(C)[N+](=O)[O-] (stereo not drawn)', 'activity change, negative = cytotoxicity', 'inactive'),
  ('O=C(CCN1CCN2CCCC2C1)N1c2ccccc2Sc2ccc(Cl)cc21 (stereo not drawn)', 'activity change, negative = cytotoxicity', 'inactive'),
  ('Cc1ccccc1N=Nc1ccc(N=Nc2c(O)ccc3ccccc23)c(C)c1', 'activity change, negative = cytotoxicity', 'inactive'),
  ('CCOc1nc2cccc(C(=O)O)c2n1Cc1ccc(-c2ccccc2-c2nn[nH]n2)cc1', 'activity change, negative = cytotoxicity', 'inactive'),
  ('CC(C)=CCCC(C)CC=O (stereo not drawn)', 'activity change, negative = cytotoxicity', 'inactive'),
  ('N#CCCNCCC#N', 'activity change, negative = cytotoxicity', 'inactive'),
  ('CCOC(=O)C1=NN(c2ccccc2)C(=O)C1', 'activity change, negative = cytotoxicity', 'inactive'),
  ('NCCCOCCOCCOCCCN', 'activity change, negative = cytotoxicity', 'inactive'),
  ('Cc1cc(O)ccc1N', 'activity change, negative = cytotoxicity', 'inactive'),
  ('CCC(=O)OC(C)(C)C1CC=C(C)CC1 (stereo not drawn)', 'activity change, negative = cytotoxicity', 'inactive'),
  ('CCCCCCCCCC(=O)OCC', 'activity change, negative = cytotoxicity', 'inactive'),
  ('O=C(Cl)c1c(Cl)cccc1Cl', 'activity change, negative = cytotoxicity', 'inactive'),
  ('Oc1ccc(O)c2c(O)cccc12', 'activity change, negative = cytotoxicity', 'inactive'),
  ('CC(C)CCCC(C)CCO (stereo not drawn)', 'activity change, negative = cytotoxicity', 'inactive'),
  ('COc1ccc([C@@H]2Sc3ccccc3N(CCN(C)C)C(=O)[C@@H]2OC(C)=O)cc1', 'activity change, negative = cytotoxicity', 'inactive'),
  ('CC(C(=O)O)c1ccc(-c2ccccc2)c(F)c1 (stereo not drawn)', 'activity change, negative = cytotoxicity', 'inactive'),
  ('CCCCCCCCCC=O', 'activity change, negative = cytotoxicity', 'inactive'),
  ('CCCCCCCC/C=C\CCCCCCCC(N)=O', 'activity change, negative = cytotoxicity', 'inactive'),
  ('CCN(CC)CCc1nc(-c2ccccc2)no1', 'activity change, negative = cytotoxicity', 'inactive');
